Parameter activation: see the listing below.
procedure summary: qHTS assay for small molecule activators of the nuclear factor-kappa B (NF-kB) signaling pathway (AID 651749); further: % of control where 0% means no effect
experimental parameters: NF-kB-bla ME-180 cells, beta-lactamase FRET ratio, 16 h; active compounds read high
Inconclusive results are not listed. Active and inactive are the calls of the source. The call rests on the fitted dose curve; in most records, active means well fitted activation curve with a large enough effect in the signal ratio; inconclusive means small, poorly fitted or top-dose-only effect, or a change in a side signal; inactive means flat fitted curve, though single readings scatter; the % refers to the signal ratio.

As a guide, the following entries are already answered.
{"mol smiles": "Cc1ccc2ccc3cccc4ccc1c2c34", "activation": "-0.92% (inactive)"}
{"mol smiles": "c1ccc(CSCc2ccccc2)cc1", "activation": "-0.1% (inactive)"}
{"mol smiles": "c1ccc(SCCSc2ccccc2)cc1", "activation": "-4.5% (inactive)"}
{"mol smiles": "O=C(O)c1cc(N=Nc2ccc([N+](=O)[O-])cc2)ccc1O", "activation": "-2.01% (inactive)"}

Report activation for `S=C(NC1CCCCC1)NC1CCCCC1` please. -0.887% (inactive)

Report activation for `c1ccncc1` please. 0.644% (inactive)

Report activation for `C=C(C#N)C(=O)OCC` please. -1.44% (inactive)

###

target system: Glucocorticoid receptor (Homo sapiens) (UniProt P04150)
Sequence (P04150 whole entry, looked up): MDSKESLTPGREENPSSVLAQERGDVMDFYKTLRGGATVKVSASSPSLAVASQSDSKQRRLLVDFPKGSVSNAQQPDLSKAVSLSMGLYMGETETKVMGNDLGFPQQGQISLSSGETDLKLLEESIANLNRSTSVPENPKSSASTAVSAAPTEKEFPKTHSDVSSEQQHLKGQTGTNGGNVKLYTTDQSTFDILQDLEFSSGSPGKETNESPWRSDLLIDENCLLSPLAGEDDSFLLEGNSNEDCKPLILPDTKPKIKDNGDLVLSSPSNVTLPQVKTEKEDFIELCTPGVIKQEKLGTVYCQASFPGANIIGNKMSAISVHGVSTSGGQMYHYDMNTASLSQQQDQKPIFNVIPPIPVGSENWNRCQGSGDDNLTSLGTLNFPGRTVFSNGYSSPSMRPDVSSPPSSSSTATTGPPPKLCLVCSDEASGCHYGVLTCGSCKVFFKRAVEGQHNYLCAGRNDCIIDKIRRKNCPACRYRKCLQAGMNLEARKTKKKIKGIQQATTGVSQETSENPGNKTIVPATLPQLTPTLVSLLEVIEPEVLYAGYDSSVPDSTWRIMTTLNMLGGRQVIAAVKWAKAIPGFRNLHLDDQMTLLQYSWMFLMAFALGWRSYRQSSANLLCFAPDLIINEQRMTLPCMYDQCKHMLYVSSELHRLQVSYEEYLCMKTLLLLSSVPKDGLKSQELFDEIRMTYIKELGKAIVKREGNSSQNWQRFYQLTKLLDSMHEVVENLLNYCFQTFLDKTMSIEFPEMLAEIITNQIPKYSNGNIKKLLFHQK
procedure summary: GR-EFC Redistribution (AID 451); further: potency means the concentration at half of the fitted maximal effect
experimental parameters: CHO-K1 GR-EFC translocation, beta-gal luminescence, 2 h
The source made the active and inactive calls. Calls follow the shape of the full dose curve. Residues, ends and D or L forms follow the SMILES beside them.
measured parameter: Potency

As a guide, the following entries are already answered.
{"compound": "COC(=O)[C@@H]1C(O)[C@@H](C(=O)OC)[C@H](C)N(C)[C@@H]1C (stereo partly specified)", "target system": "Glucocorticoid receptor (Homo sapiens) (UniProt P04150)", "Potency": "> 9.22 µM (inactive)"}
{"compound": "COc1ccc(-n2c(=O)c(C)nc3cnc(Oc4cccc(Cl)c4)nc32)cc1", "target system": "Glucocorticoid receptor (Homo sapiens) (UniProt P04150)", "Potency": "> 46 µM (inactive)"}
{"compound": "Cn1cnc([N+](=O)[O-])c1[Se]c1nc(N)nc2c1ncn2[C@@H]1O[C@@H](CO)[C@H](O)[C@@H]1O", "target system": "Glucocorticoid receptor (Homo sapiens) (UniProt P04150)", "Potency": "> 9.22 µM (inactive)"}
{"compound": "c1ccc(C[C@@H](Nc2cccnc2)c2ccccc2)cc1", "target system": "Glucocorticoid receptor (Homo sapiens) (UniProt P04150)", "Potency": "> 9.22 µM (inactive)"}
{"compound": "CN(C)CC(C)(C)CN1c2ccccc2Sc2ccccc21", "target system": "Glucocorticoid receptor (Homo sapiens) (UniProt P04150)", "Potency": "> 9.22 µM (inactive)"}

State its Potency on Glucocorticoid receptor (Homo sapiens) (UniProt P04150): `O=c1cnc2cnc(Oc3ccccc3)nc2n1CCc1ccccc1` > 46 µM (inactive)

State its Potency on Glucocorticoid receptor (Homo sapiens) (UniProt P04150): `O=C1C[C@H]2OCC=C3CN4CC[C@@]5(C(=O)O)[C@H](N1)[C@H]2[C@H]3C[C@H]45` > 9.22 µM (inactive)

State its Potency on Glucocorticoid receptor (Homo sapiens) (UniProt P04150): `Oc1c(CN2CCN(c3ccccc3)CC2)cc(Br)c2cccnc12` > 9.22 µM (inactive)

State its Potency on Glucocorticoid receptor (Homo sapiens) (UniProt P04150): `O=C(NCCO)c1ccc(Cl)cc1` > 9.22 µM (inactive)

State its Potency on Glucocorticoid receptor (Homo sapiens) (UniProt P04150): C[C@@H](NC(=O)C1(N)CCCC1)C(=O)O (HELM PEPTIDE1{[NC1(C(=O)[*:2])CCCC1].[dA]}$$$$V2.0) > 9.22 µM (inactive)

State its Potency on Glucocorticoid receptor (Homo sapiens) (UniProt P04150): `CC(C)[C@@H](C)/C=C\[C@@H](C)[C@@H]1CC[C@H]2C3=CC=C4C[C@@H](O)CC[C@]4(C)[C@H]3CC[C@]21C` > 9.22 µM (inactive)

State its Potency on Glucocorticoid receptor (Homo sapiens) (UniProt P04150): `Cc1cc(Cl)nc2ccc(Cc3ccc4nc(Cl)cc(C)c4c3)cc12` > 9.22 µM (inactive)

State its Potency on Glucocorticoid receptor (Homo sapiens) (UniProt P04150): `CN(C)CCN1C(=O)CC[C@]2(C)C1=CC[C@@H]1[C@@H]2CC[C@]2(C)[C@H]1CC[C@]2(C)O` > 9.22 µM (inactive)

State its Potency on Glucocorticoid receptor (Homo sapiens) (UniProt P04150): `CC(C)CNC(=O)O` > 9.22 µM (inactive)

State its Potency on Glucocorticoid receptor (Homo sapiens) (UniProt P04150): `COc1ccccc1OC[C@H](O)CN1CCN(CC(=O)Nc2c(C)cccc2C)CC1` > 46 µM (inactive)

State its Potency on Glucocorticoid receptor (Homo sapiens) (UniProt P04150): `O=C(C[C@@H]1C=Cc2ccccc2N1C(=O)c1ccccc1)c1ccccc1` > 9.22 µM (inactive)

###

target system: Peroxisome proliferator-activated receptor alpha (Homo sapiens)
procedure summary: qHTS assay for small molecule agonists of the peroxisome proliferator-activated receptor alpha (PPARalpha) signaling pathway (AID 651778); further: % of control where 0% means no effect
experimental parameters: PathHunter PPARalpha complementation, chemiluminescence, 6 h; active compounds read high
Parameter max response: see the listing below.
All answers are understood in %, so give the number only.

{"compound": "c1ccc2ncccc2c1", "reading unit": "%", "max response": -2.05}
{"compound": "C[C@@H]1CC2(OC(O)[C@]3(C)O[C@H]23)O[C@H]2C[C@@]3(C)[C@@H]4CC[C@H]5C(C)(C)C(O[C@@H]6OC[C@@H](O)[C@H](O)[C@H]6O)CC[C@@]56C[C@@]46CC[C@]3(C)[C@@H]12 (some centres not stated)", "reading unit": "%", "max response": 6.75}

Report max response for `N=C1C=CC(=C(c2ccc(N)cc2)c2ccc(N)cc2)C=C1` please. -9.83

Report max response for CCCCCCCCC1CO1 (configuration not stated) please. -3.27

Report max response for `Cc1cc(=O)oc2cc(O)cc(O)c12` please. 0.255

Report max response for `CCCCNCC` please. -6.73

Report max response for `Cc1c(C(=O)O)c(O)cc2c1C(=O)c1c(O)c([C@H]3O[C@H](CO)[C@@H](O)[C@H](O)[C@H]3O)c(O)c(O)c1C2=O` please. -8.63

Report max response for `Cc1ccc(C(=O)O)cc1[N+](=O)[O-]` please. -2.73

Report max response for `O=[N+]([O-])c1cc(Cl)c(Cl)c(Cl)c1Cl` please. -1.46

Report max response for `Cc1ccc(O)c(N)c1` please. -1.19

Report max response for `Cc1ccc2ccc3cccc4ccc1c2c34` please. -2.03

Report max response for `C/C=C1/C(=O)C[C@H]2[C@@H]3CCC4=CC(=O)CC[C@]4(C)[C@H]3CC[C@]12C` please. -2.73

Report max response for `COc1cc(-c2ccc(N=C=O)c(OC)c2)ccc1N=C=O` please. 20.1

###

procedure summary: Cell Viability - N2a (AID 540);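 further: cells exposed to compound for 40 h at 37 °C; plate controls were DMSO alone for no effect and tamoxifen control for full effect; nearly all actives have a fitted effect of over 45% in size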
experimental parameters: N2a mouse neuroblastoma cell viability; at 92.2 µM (top of the series)
Inconclusive results are not listed. Active and inactive are the calls of the source. The call rests on the fitted dose curve; in most records, active means well fitted cell-killing curve with a large enough effect; inconclusive means small, poorly fitted or top-dose-only effect; inactive means flat fitted curve, though single readings scatter.
Result category, one only: class 1 = active, class 0 = inactive

Solved cases (6 shown):
{"compound": "Brc1ccc(-c2ccccc2)cc1", "label": "class 0"}
{"compound": "Clc1nc2ccccc2nc1Cl", "label": "class 0"}
{"compound": "CC(=O)c1ccc(Cl)c(Cl)c1Cl", "label": "class 0"}
{"compound": "CC(C)S", "label": "class 0"}
{"compound": "C1CCCNCC1", "label": "class 0"}
{"compound": "C=C(C#N)C(=O)OCC", "label": "class 0"}

Returns: the outcome recorded for O=C(OCC1CO1)C1CCCCC1C(=O)OCC1CO1 (configuration not stated) in this assay. class 0

Returns: the outcome recorded for C=CC1CO1 (configuration not stated) in this assay. class 0

Returns: the outcome recorded for `c1ccncc1` in this assay. class 0

Returns: the outcome recorded for `CCCCCCc1ccc(-c2ccc(C#N)cc2)cc1` in this assay. class 0

Returns: the outcome recorded for CCC(Cl)CC(Cl)C(Cl)C(Cl)C(Cl)C(C)Cl (configuration not stated) in this assay. class 0

Returns: the outcome recorded for `CCCCOC(=O)COc1ccc(Cl)cc1Cl` in this assay. class 0

Returns: the outcome recorded for `Brc1cc(Oc2cc(Br)c(Br)c(Br)c2Br)c(Br)c(Br)c1Br` in this assay. class 0

Returns: the outcome recorded for `CC(C)COC(=O)COc1cc(Cl)c(Cl)cc1Cl` in this assay. class 0

Returns: the outcome recorded for CC(C)OCC1CO1 (configuration not stated) in this assay. class 0

Returns: the outcome recorded for `C=CC(=O)OCCCCCCOC(=O)C=C` in this assay. class 1

Returns: the outcome recorded for `OCC(CO)(CBr)CBr` in this assay. class 0

Returns: the outcome recorded for `Cc1c(N)cccc1Cl` in this assay. class 0
